- System: Fulvia fulva
- experiment-description: Antifungal activity against Fulvia fulva TK 5318 after 72 hrs by serial sub-cultivation method
- Type: functional
- particulars: TK 5318, 72 h

smiles | MFC
COc1cc(/C=C2\S/C(=N\c3nc(C45CC6CC(CC(C6)C4)C5)cs3)NC2=O)ccc1O | 21.9 µM
O=C1N/C(=N/c2nc(C34CC5CC(CC(C5)C3)C4)cs2)S/C1=C\c1ccc(O)cc1 | 22.9 µM
O=C1N/C(=N/c2nc(C34CC5CC(CC(C5)C3)C4)cs2)S/C1=C\c1cccc([N+](=O)[O-])c1 | 16.1 µM

----------
- System: Bacillus cereus
- experiment-description: Antibacterial activity against Bacillus cereus clinical isolate after 72 hrs by serial sub-cultivation method
- Type: functional

smiles | MBC [µM]
O=C1N/C(=N/c2nc(C34CC5CC(CC(C5)C3)C4)cs2)S/C1=C\c1cccc([N+](=O)[O-])c1 | 21.5
CC1(C)S[C@@H]2[C@H](NC(=O)[C@H](N)c3ccccc3)C(=O)N2[C@H]1C(=O)O | 372
O=C1N/C(=N/c2nc(C34CC5CC(CC(C5)C3)C4)cs2)S/C1=C\c1cccc(Cl)c1 | 21.9
O=C1N/C(=N/c2nc(C34CC5CC(CC(C5)C3)C4)cs2)S/C1=C\c1ccc(O)cc1 | 22.9
O=C1N/C(=N/c2nc(C34CC5CC(CC(C5)C3)C4)cs2)S/C1=C\c1ccccc1[N+](=O)[O-] | 21.5
O=C1CS/C(=N/c2nc(C34CC5CC(CC(C5)C3)C4)cs2)N1 | 23.8
O=C1N/C(=N/c2nc(C34CC5CC(CC(C5)C3)C4)cs2)S/C1=C\c1ccc(Cl)cc1 | 21.9
CN[C@@H]1[C@H](O[C@H]2[C@H](O[C@H]3[C@H](O)[C@@H](O)[C@H](N=C(N)N)[C@@H](O)[C@@H]3N=C(N)N)O[C@@H](C)[C@]2(O)C=O)O[C@@H](CO)[C@H](O)[C@H]1O | 86

----------
- System: Staphylococcus aureus
- experiment-description: Antibacterial activity against Staphylococcus aureus ATCC 6538 after 72 hrs by serial sub-cultivation method
- Assay type: functional
- particulars: ATCC 6538, 72 h
Entries and their measured MBC follow.

smiles | MBC, µM
CC1(C)S[C@@H]2[C@H](NC(=O)[C@H](N)c3ccccc3)C(=O)N2[C@H]1C(=O)O | 372
O=C1N/C(=N/c2nc(C34CC5CC(CC(C5)C3)C4)cs2)S/C1=C\c1cccc(Cl)c1 | 43.8
O=C1CS/C(=N/c2nc(C34CC5CC(CC(C5)C3)C4)cs2)N1 | 47.6
COc1cc(/C=C2\S/C(=N\c3nc(C45CC6CC(CC(C6)C4)C5)cs3)NC2=O)ccc1O | 43.8
CN[C@@H]1[C@H](O[C@H]2[C@H](O[C@H]3[C@H](O)[C@@H](O)[C@H](N=C(N)N)[C@@H](O)[C@@H]3N=C(N)N)O[C@@H](C)[C@]2(O)C=O)O[C@@H](CO)[C@H](O)[C@H]1O | 344

Origin of measurements: ChEMBL document CHEMBL1157665
